Each entry below carries its recorded CC50 at 6 days.
methodSummary: Cell viability of uninfected drug control wells, CEM-SS cells (XTT)
Format: cell-based
assaySetup: human, read-out: TC50
Quick note: give the figure in µM, leave out the unit.

Inquiry: Could you share which CC50 at 6 days value was measured for CCCC(=O)OCSc1ccccc1C(=O)NCCn1ccc(=O)c2cc3c(cc21)OCO3 ?
Reply text: 32.2

Inquiry: Could you share which CC50 at 6 days value was measured for CCCC(=O)OCSc1ccccc1C(=O)NCCn1ccc(=O)c2cc(F)ccc21 ?
Reply text: 56.2

* * *

Test system: PBMCs
methodSummary: Cytotoxicity in PBMCs (XTT)
Format: cell-based
assaySetup: PBMCs, line of isolate UG92001 (D); read-out: TC50 (the source's name)
Experimental: (b) Anti-HIV-1 Cytoprotection Assay in PBMCs: PHA-P stimulated PBMCs from three donors were pooled together and re-suspended in fresh tissue culture medium at 1×10^6 cells/ml and plated in the interior wells of a 96 well round bottom microplate at 50 μL/well. A 100 μL volume of 2× concentrations of compound-containing media were transferred to the round-bottom 96-well plate containing the cells in triplicate. Fifty microliters (50 μL) of HIV-1 at a pre-determined dilution was added. […]
measuredMetric: CC50

Inquiry: Could you share which CC50 value was measured for CCCC(=O)OCSc1ccccc1C(=O)NCCn1cc(C(=O)NCc2cccc(C)n2)c(=O)c2cc3c(cc21)OC(F)(F)O3 [Compound 17] ?
Reply text: > 100 µM

* * *

Each entry below carries its recorded Tmax.
methodSummary: Pharmacokinetic study in male CD-1 mice
Format: in vivo
assaySetup: mouse, in vivo; single IV bolus 5 mg/kg of compound 17, male CD-1 mice, plasma; 18 and 19 measured as metabolites
Quick note: give the figure in min, leave out the unit.

Inquiry: Could you share which Tmax value was measured for Cc1cccc(CNC(=O)c2cn(CCNC(=O)c3ccccc3Sc3c([N+](=O)[O-])ncn3C)c3cc4c(cc3c2=O)OC(F)(F)O4)n1 ?
Reply text: 4.98

Now take the following compound into account.
Inquiry: Could you share which Tmax value was measured for Cc1cccc(CNC(=O)c2cn(CCNC(=O)c3ccccc3S)c3cc4c(cc3c2=O)OC(F)(F)O4)n1 ?
Reply text: 4.98

* * *

methodSummary: Pharmacokinetic study in male CD-1 mice
Assay type: in vivo
assaySetup: mouse, in vivo; single IV bolus 5 mg/kg of compound 17, male CD-1 mice
measuredMetric: clearance (mL/min/kg)
Quick note: give the figure in mL/min/kg, leave out the unit.

Inquiry: Could you share which clearance value was measured for CCCC(=O)OCSc1ccccc1C(=O)NCCn1cc(C(=O)NCc2cccc(C)n2)c(=O)c2cc3c(cc21)OC(F)(F)O3 [Compound 17] ?
Reply text: 136

* * *

Each entry below carries its recorded AUC0-inf.
methodSummary: Pharmacokinetic study in male CD-1 mice
Assay type: in vivo
assaySetup: male, CD-1, mouse, in vivo, iv, 5 mg/kg, single IV bolus 5 mg/kg of compound 17, male CD-1 mice, plasma; 18 and 19 measured as metabolites; read-out: AUC0-inf
Quick note: give the figure in ng·h/mL, leave out the unit.

Inquiry: Could you share which AUC0-inf value was measured for Cc1cccc(CNC(=O)c2cn(CCNC(=O)c3ccccc3S)c3cc4c(cc3c2=O)OC(F)(F)O4)n1 [Compound 19] ?
Reply text: 13.1

Now take the following molecule into account.
Inquiry: Could you share which AUC0-inf value was measured for Cc1cccc(CNC(=O)c2cn(CCNC(=O)c3ccccc3Sc3c([N+](=O)[O-])ncn3C)c3cc4c(cc3c2=O)OC(F)(F)O4)n1 [Compound 18] ?
Reply text: 42.5

* * *

Test system: HIV-192RW009
methodSummary: Anti-HIV-1 cytoprotection assay in PBMCs (reverse transcriptase in supernatant)
Type: cell-based
assaySetup: Human immunodeficiency virus 1, 168 h; PBMC, HIV-192RW009, 7 days
measuredMetric: pEC50
When answering, recall that pEC50 equals minus log10 of the concentration in mol/L, and write that number alone.

Inquiry: Could you share which pEC50 value was measured for CCCC(=O)OCSc1ccccc1C(=O)NCCn1ccc(=O)c2cc3c(cc21)OCO3 ?
Reply text: 6.32

Now take the following molecule into account.
Inquiry: Could you share which pEC50 value was measured for Cc1cccc(CNC(=O)c2cn(CCNC(=O)c3ccccc3Sc3c([N+](=O)[O-])ncn3C)c3cc4c(cc3c2=O)OCO4)n1 ?
Reply text: 4.51

* * *

Tested on: PBMCs
methodSummary: Cytotoxicity in PBMCs (XTT)
Type: cell-based
assaySetup: PBMCs, line of isolate RW92009 (A); read-out: TC50 (the source's name)
measuredMetric: CC50

Inquiry: Could you share which CC50 value was measured for CCCC(=O)OCSc1ccccc1C(=O)NCCn1cc(C(=O)NCc2cccc(C)n2)c(=O)c2cc3c(cc21)OC(F)(F)O3 [Compound 17] ?
Reply text: > 100 µM

* * *

methodSummary: Pharmacokinetic study in male CD-1 mice
Format: in vivo
assaySetup: mouse, in vivo; single IV bolus 5 mg/kg of compound 17, male CD-1 mice, plasma; 18 and 19 measured as metabolites
measuredMetric: half-life (h)
Quick note: give the figure in h, leave out the unit.

Inquiry: Could you share which half-life value was measured for Cc1cccc(CNC(=O)c2cn(CCNC(=O)c3ccccc3S)c3cc4c(cc3c2=O)OC(F)(F)O4)n1 ?
Reply text: 0.35

Now take the following compound into account.
Inquiry: Could you share which half-life value was measured for Cc1cccc(CNC(=O)c2cn(CCNC(=O)c3ccccc3Sc3c([N+](=O)[O-])ncn3C)c3cc4c(cc3c2=O)OC(F)(F)O4)n1 ?
Reply text: 2.73

* * *

methodSummary: Pharmacokinetic study in male CD-1 mice
Type: in vivo
assaySetup: mouse, in vivo; single IV bolus 5 mg/kg of compound 17, male CD-1 mice, plasma; 18 and 19 measured as metabolites
measuredMetric: MRT inf

Inquiry: Could you share which MRT inf value was measured for Cc1cccc(CNC(=O)c2cn(CCNC(=O)c3ccccc3Sc3c([N+](=O)[O-])ncn3C)c3cc4c(cc3c2=O)OC(F)(F)O4)n1 ?
Reply text: 3.73 h

Now take the following molecule into account.
Inquiry: Could you share which MRT inf value was measured for Cc1cccc(CNC(=O)c2cn(CCNC(=O)c3ccccc3S)c3cc4c(cc3c2=O)OC(F)(F)O4)n1 ?
Reply text: 0.33 h

* * *

Tested on: PBMCs
methodSummary: Cytotoxicity in PBMCs (XTT)
Format: cell-based
assaySetup: PBMCs, line of isolate RU132 (G); read-out: TC50 (the source's name)
measuredMetric: CC50

Inquiry: Could you share which CC50 value was measured for CCCC(=O)OCSc1ccccc1C(=O)NCCn1cc(C(=O)NCc2cccc(C)n2)c(=O)c2cc3c(cc21)OC(F)(F)O3 ?
Reply text: > 100 µM

* * *

methodSummary: Cell viability of uninfected drug control wells, CEM-SS cells (XTT)
Assay type: cell-based
assaySetup: human, read-out: TC50
measuredMetric: CC50 at 6 days

Worked cases, answers included:
Inquiry: Could you share which CC50 at 6 days value was measured for CCCC(=O)OCSc1ccccc1C(=O)NCCn1cc(C(=O)NCc2cccc(C)n2)c(=O)c2cc3c(cc21)OC(F)(F)O3 ?
Reply text: > 100 µM

Inquiry: Could you share which CC50 at 6 days value was measured for CCCC(=O)OCSc1ccccc1C(=O)NCCn1cc(C(=O)NCc2cccc(C)n2)c(=O)c2cc3c(cc21)OCO3 ?
Reply text: > 100 µM

---
Inquiry: Could you share which CC50 at 6 days value was measured for CCCC(=O)OCSc1ccccc1C(=O)NCCn1cc(C(=O)NCc2ccccn2)c(=O)c2cc3c(cc21)OCO3 ?
Reply text: > 100 µM

* * *

Each entry below carries its recorded EC50.
Test system: HIV-192RW009
methodSummary: Anti-HIV-1 cytoprotection assay in PBMCs (reverse transcriptase in supernatant)
Type: cell-based
assaySetup: Human immunodeficiency virus 1, 168 h; PBMC, HIV-192RW009, 7 days
Protocol: (b) Anti-HIV-1 Cytoprotection Assay in PBMCs: PHA-P stimulated PBMCs from three donors were pooled together and re-suspended in fresh tissue culture medium at 1×10^6 cells/ml and plated in the interior wells of a 96 well round bottom microplate at 50 μL/well. A 100 μL volume of 2× concentrations of compound-containing media were transferred to the round-bottom 96-well plate containing the cells in triplicate. Fifty microliters (50 μL) of HIV-1 at a pre-determined dilution was added. […]
Quick note: give the figure in nM, leave out the unit.

Inquiry: Could you share which EC50 value was measured for CCCC(=O)OCSc1ccccc1C(=O)NCCn1ccc(=O)c2cc(F)ccc21 [Compound 1] ?
Reply text: 2480

Inquiry: Could you share which EC50 value was measured for Cn1cnc([N+](=O)[O-])c1Sc1ccccc1C(=O)NCCn1ccc(=O)c2cc3c(cc21)OCO3 [Compound 3] ?
Reply text: 17700

---
Inquiry: Could you share which EC50 value was measured for CCCC(=O)OCSc1ccccc1C(=O)NCCn1cc(C(=O)NCc2cccc(C)n2)c(=O)c2cc3c(cc21)OCO3 [Compound 4] ?
Reply text: 1090

Inquiry: Could you share which EC50 value was measured for CCCC(=O)OCSc1ccccc1C(=O)NCCn1cc(C(=O)NCc2ccccn2)c(=O)c2cc3c(cc21)OCO3 [Compound 5] ?
Reply text: 910
